# pIC50 per entry
- Test system: Toxoplasma gondii
- TEST METHOD NOTES: Antimicrobial activity against Toxoplasma gondii
- Assay type: functional, organism-based
- ASSAY CONDITIONS: Toxoplasma gondii
Just so you know, pIC50 here is -log10 of the concentration in molar units; reply with that number alone.

Solved entries:
COMPOUND	pIC50
NC(=O)c1nnn(Cc2cc(Cl)c(C(=O)C34CC5CC(CC(C5)C3)C4)c(Cl)c2)c1N	4.82
N[C@@H]1[C@H]2CN(c3cc4c(cc3F)c(=O)c(C(=O)O)cn4-c3ccc(F)cc3F)C[C@@H]12	5.52
c1ccc2cc(Sc3cc4ccccc4[nH]3)ccc2c1	5.40
C[C@@H]1[C@@H]2[C@@H](N)[C@@H]2CN1c1nc2c(cc1F)c(=O)c(C(=O)O)cn2-c1ccc(F)cc1F	6.00
[O-][S+](c1ccccc1)c1cc2ccccc2[nH]1 (centres undefined)	4.30
CN[C@H]1[C@@H]2CN(c3nc4c(cc3F)c(=O)c(C(=O)O)cn4-c3ccc(F)cc3F)C[C@@H]21	6.00
N[C@@H]1[C@H]2CN(c3nc4c(cc3F)c(=O)c(C(=O)O)cn4C3CC3)C[C@@H]12	5.70
O=[N+]([O-])c1cccc(Sc2cc3ccccc3[nH]2)c1	5.70
CSc1c(Sc2ccc([N+](=O)[O-])cc2)[nH]c2ccccc12	4.55
O=C(O)COCCOCCOc1cc(Cl)c(Cl)cc1Cl	6.00

The record that follows has no pIC50 shown yet.
INPUT: Please give the measured pIC50 for this compound: Cc1c(F)c(N2C[C@@H]3[C@@H](N)[C@@H]3C2)nc2c1c(=O)c(C(=O)O)cn2-c1ccc(F)cc1F
OUTPUT: 6.00

---

- Test system: Entamoeba histolytica
- TEST METHOD NOTES: Antimicrobial activity against Entamoeba histolytica
- Format: functional, organism-based
OUTCOME MEASURE: pIC50
Just so you know, pIC50 here is -log10 of the concentration in molar units; reply with that number alone.

INPUT: Please give the measured pIC50 for this compound: O=P(O)(O)C(Nc1cc(Cl)cc(Cl)c1)P(=O)(O)O
OUTPUT: 3.70

INPUT: Please give the measured pIC50 for this compound: O=P(O)(O)C(NCCc1ccccc1)P(=O)(O)O
OUTPUT: 3.70

INPUT: Please give the measured pIC50 for this compound: CN(CCOc1ccccc1)CCC(O)(P(=O)(O)O)P(=O)(O)O
OUTPUT: 5.22

---

- Tested on: Toxoplasma gondii
- TEST METHOD NOTES: Antimicrobial activity against Toxoplasma gondii
- Format: functional, organism-based
- ASSAY CONDITIONS: Toxoplasma gondii
# IC50 per entry
Express it in nM; write the number only.

COMPOUND	OUTCOME MEASURE	MEASURED
c1ccc2[nH]c(Sc3cccc4ccccc34)cc2c1	IC50	3000
NCC12CC1CN(c1nc3c(cc1F)c(=O)c(C(=O)O)cn3C1CC1)C2 (stereo not drawn)	IC50	12000

The record that follows has no IC50 shown yet.
INPUT: Please give the measured IC50 for this compound: C[C@@H]1[C@@H]2[C@@H](CN)[C@@H]2CN1c1nc2c(cc1F)c(=O)c(C(=O)O)cn2-c1ccc(F)cc1F
OUTPUT: 3000
